Examples of binders with documented variant/wild-type follow.
system.under.test: T1, human tissue factor pathway inhibitor (TFPI) (human, UniProt P10646 29-304, limits assumed)
T1 construct: bought; also called hTFPI; human TFPI
T1 sequence (looked up): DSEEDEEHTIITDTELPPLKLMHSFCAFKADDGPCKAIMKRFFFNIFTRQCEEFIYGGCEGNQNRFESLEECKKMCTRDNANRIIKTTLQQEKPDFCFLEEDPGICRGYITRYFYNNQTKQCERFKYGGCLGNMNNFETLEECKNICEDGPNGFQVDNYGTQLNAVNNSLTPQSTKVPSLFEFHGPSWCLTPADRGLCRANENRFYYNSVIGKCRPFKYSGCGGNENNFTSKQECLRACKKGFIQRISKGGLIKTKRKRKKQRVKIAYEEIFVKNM
experiment.description: competitive ELISA
Numbers only here, please. The scale is ratio.

Use the examples below as a reference point.
{"binder": "4B7 LC_D33F (Fab, V domains shown) VH: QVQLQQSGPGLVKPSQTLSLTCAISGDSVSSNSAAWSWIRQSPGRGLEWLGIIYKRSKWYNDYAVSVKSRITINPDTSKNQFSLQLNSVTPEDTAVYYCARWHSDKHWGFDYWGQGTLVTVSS VL: DIVMTQSPLSLPVTPGEPASISCRSSQSLVFSFGNTYLNWYLQKPGQSPQLLIYKGSNRASGVPDRFSGSGSGTDFTLKISRVEAEDVGVYYCQQYDSYPLTFGQGTKVEIKR", "unit.label": "ratio", "observed.value": 5.3}
{"binder": "4B7 LC_D97T (Fab, V domains shown) VH: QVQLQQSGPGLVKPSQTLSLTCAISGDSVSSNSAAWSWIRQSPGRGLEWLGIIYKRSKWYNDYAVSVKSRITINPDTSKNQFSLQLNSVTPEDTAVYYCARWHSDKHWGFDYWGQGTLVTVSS VL: DIVMTQSPLSLPVTPGEPASISCRSSQSLVFSDGNTYLNWYLQKPGQSPQLLIYKGSNRASGVPDRFSGSGSGTDFTLKISRVEAEDVGVYYCQQYTSYPLTFGQGTKVEIKR", "unit.label": "ratio", "observed.value": 1.8}

What value of variant/wild-type has been recorded for this entry: 4B7 LC_S32R (Fab, V domains shown) VH: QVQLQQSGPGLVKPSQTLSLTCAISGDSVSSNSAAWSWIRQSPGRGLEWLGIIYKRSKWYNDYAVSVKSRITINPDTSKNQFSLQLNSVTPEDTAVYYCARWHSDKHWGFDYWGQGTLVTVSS VL: DIVMTQSPLSLPVTPGEPASISCRSSQSLVFRDGNTYLNWYLQKPGQSPQLLIYKGSNRASGVPDRFSGSGSGTDFTLKISRVEAEDVGVYYCQQYDSYPLTFGQGTKVEIKR
4.2
